assay details: GAL4-VP16 reporter modulators, confirmation, counter-screen for NR2E3 agonist project, cell-based, luminescence, CHO-S, high throughput (AID 624379);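 further: luciferase from a UAS reporter driven by GAL4-VP16 transactivation; 0% = DMSO with VP16-transfected cells and 100% = DMSO with cells lacking VP16; higher means less reporter light so more repression of VP16 activity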
settings: CHO-S GAL4-VP16 luciferase reporter, at 3.98 µM
Some of the results follow. Activity calls are given as the source filed them.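 How the source made its calls: active means mean inhibition above a cutoff equal to the average over all tested compounds plus one standard deviation (cut at about 70% in these data); inactive means the rest.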
Log the outcome using a class from true (1) = active, false (0) = inactive

The examples below pair each entry with its known result.
# compound, answer label
rows = [
    ("Cc1[nH]c(=O)c(C(=O)/C=C/c2ccccc2)c2c1CCCC2", "false (0)"),
    ("O=C(NC1=CC(=O)c2ccccc2C1=O)c1ccccc1", "false (0)"),
]

Task: Per the assay record, what outcome was assigned to O=C(/C=C/c1ccc([N+](=O)[O-])o1)NNC(=O)c1ccc(F)cc1 ?
Output: false (0)

* * *

measurement target: Nuclear receptor subfamily 5 group A member 2 (Homo sapiens) (UniProt O00482)
Sequence (O00482 whole entry, looked up): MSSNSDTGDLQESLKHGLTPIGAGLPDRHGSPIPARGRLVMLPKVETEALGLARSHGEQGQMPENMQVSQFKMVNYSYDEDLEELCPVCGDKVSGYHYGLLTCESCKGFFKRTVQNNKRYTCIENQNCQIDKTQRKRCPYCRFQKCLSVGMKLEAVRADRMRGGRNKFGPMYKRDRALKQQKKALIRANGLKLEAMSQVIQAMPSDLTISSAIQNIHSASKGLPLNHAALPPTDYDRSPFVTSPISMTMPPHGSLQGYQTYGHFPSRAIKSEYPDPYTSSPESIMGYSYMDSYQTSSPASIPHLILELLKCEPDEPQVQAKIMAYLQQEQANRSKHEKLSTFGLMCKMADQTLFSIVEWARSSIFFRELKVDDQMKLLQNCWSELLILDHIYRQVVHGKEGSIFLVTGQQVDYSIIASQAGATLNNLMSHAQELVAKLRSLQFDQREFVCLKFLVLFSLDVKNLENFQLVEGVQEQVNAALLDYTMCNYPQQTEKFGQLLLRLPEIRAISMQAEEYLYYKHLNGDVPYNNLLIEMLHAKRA
assay details: LRH-1 (NR5A2) inverse agonists, retest, confirmation, cell-based, luminescence (AID 651613);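 further: HEK293T cells co-transfected with LRH-1 and StAR promoter luciferase reporter; 0% = vehicle wells and 100% = parental cells lacking receptor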
settings: cell-based LRH-1 luciferase reporter, inverse agonism; at 3.6 µM; active compounds read high
So basically: inhibition at 60% or higher? That is y. Lower than 60%? That is n.

# molecule, answer label
data = [
    ("CCCCCCCC/C=C\\CCCCCCCC(=O)NCCc1ccc(O)c(O)c1", "n"),
]

Task: Is the recorded value of inhibition equal to or greater than 60% for this molecule? Cc1cc(C)c(C(N)=O)c(Nc2cccc3ccccc23)n1
Output: n

Task: Is the recorded value of inhibition equal to or greater than 60% for this molecule? CC1Cc2cc(-c3csc(NC(=O)Cc4cccs4)n3)ccc2N1S(C)(=O)=O (configuration not stated)
Output: y

Task: Is the recorded value of inhibition equal to or greater than 60% for this molecule? Cc1ccc(/C=C2/SC(=S)N(CCCC(=O)Nc3ccc(O)cc3)C2=O)cc1
Output: n

Task: Is the recorded value of inhibition equal to or greater than 60% for this molecule? CCCC(=O)NC(c1ccc(N(C)C)cc1)c1ccc2cccnc2c1O (configuration not stated)
Output: y

* * *

Tested on: transactivating tegument protein VP16 (Human herpesvirus 1), Gal4-VP16 luciferase reporter
assay details: VP16 transactivation inhibitors, counter-screen for SRC3 inhibitor project, cell-based, luminescence, high throughput (AID 588794)
settings: mammalian cells, VP16-driven luciferase reporter luminescence; at 3.6 µM; active compounds read high
So basically: inhibition at 20% or higher? That is true (1). Lower than 20%? That is false (0).

The examples below pair each entry with its known result.
# compound, answer label
measured = [
    ("COc1ccc(/C=C2\\CN(Cc3ccccc3)C/C(=C\\c3ccc(OC)c(O)c3)C2=O)cc1O", "false (0)"),
    ("Cc1nc2c(o1)C(=O)c1ccccc1C2=Nc1ccccc1", "true (1)"),
    ("CCN(CC)c1ncnc2ccc(Br)cc12", "true (1)"),
]

Task: Is the recorded value of inhibition equal to or greater than 20% for this compound? CC(C)(C)c1nnc(N/N=C/c2cc(Br)ccc2O)n(N)c1=O
Output: true (1)

Task: Is the recorded value of inhibition equal to or greater than 20% for this compound? NC(=O)c1sc2nc3c(c(-c4ccco4)c2c1N)CCC3
Output: false (0)

Task: Is the recorded value of inhibition equal to or greater than 20% for this compound? Cc1ccc(C2=NN(C(=O)CCl)C(c3ccco3)C2)o1 (stereo not drawn)
Output: false (0)

Task: Is the recorded value of inhibition equal to or greater than 20% for this compound? CC(=O)c1cccc(NC(=O)Nc2ccc3c(c2)N(C)C(=O)CS3)c1
Output: false (0)

Task: Is the recorded value of inhibition equal to or greater than 20% for this compound? CCCC(=O)NC(c1ccc(Cl)cc1Cl)c1ccc2cccnc2c1O (stereo not drawn)
Output: true (1)

Task: Is the recorded value of inhibition equal to or greater than 20% for this compound? CCOC(=O)C1=CCN(S(=O)(=O)c2ccc(C)cc2)C1c1cccc(Cl)c1 (stereo not drawn)
Output: false (0)

Task: Is the recorded value of inhibition equal to or greater than 20% for this compound? COC(C(=O)C(O)C(C)O)C1Cc2cc3cc(OC4CC(OC5CC(O)C(O)C(C)O5)C(O)C(C)O4)c(C)c(O)c3c(O)c2C(=O)C1OC1CC(OC2CC(OC3CC(O)C(OC)C(C)O3)C(O)C(C)O2)C(O)C(C)O1 (stereo not drawn)
Output: true (1)

Task: Is the recorded value of inhibition equal to or greater than 20% for this compound? Nc1nc(CCl)nc(Nc2cccc3ccccc23)n1
Output: false (0)

Task: Is the recorded value of inhibition equal to or greater than 20% for this compound? O=C(NCCCn1ccnc1)C(=O)NCc1ccc(Cl)cc1
Output: false (0)

Task: Is the recorded value of inhibition equal to or greater than 20% for this compound? Cc1ccc2occ(/C=N/NC(=O)[C@@H](N)Cc3ccccc3)c(=O)c2c1
Output: false (0)
